system: HL-60; assay: Cytotoxicity against human HL60 cells assessed as cell viability after 48 hrs by MTS assay; type: functional, cell-based; conditions: HL-60, 48 h
measurementKind: pIC50
// scale note: pIC50 = -log10(conc_M); give the bare number

molecule=C/C1=C\[C@@H](C)C/C=C/[C@H]2C=C(CO)[C@@H](C)[C@H]3[C@H](Cc4c[nH]c5ccccc45)NC(=O)[C@]32C(=O)/C=C/C(=O)[C@@H]1O measuredon=HL-60 measured=5.48

# next molecule below
What reported pIC50 corresponds to C/C(C=O)=C\C(C)C/C=C/[C@H]1[C@@H]2O[C@]2(C)[C@@H](C)[C@H]2[C@H](Cc3c[nH]c4ccccc34)NC(=O)[C@]21C(=O)CCCO (stereo not given in full) on HL-60?
4.93

Where do these numbers come from? They come from ChEMBL document CHEMBL3585348.
